system: CCRIS mutagenicity, Ames/micronucleus/aberration tests; test: CCRIS mutagenicity studies; conditions: Test System: AMES SALMONELLA TYPHIMURIUM; Strain/Indicator: TA1538; Metabolic Activation: NONE; Method: STANDARD PLATE
Calls of active or inactive are those of the source. How the calls were made is not given here.
Give one outcome, nothing more. List: active, inactive

Below, 6 compounds whose answers are already recorded.
CCCOc1cc(N=Nc2ccc(N(CC)CC)cc2)ccc1N=Nc1c(S(=O)(=O)O)cc2ccc(N)cc2c1O : inactive
COc1cccc2c1C(=O)c1c(O)c3c(c(O)c1C2=O)C[C@@](O)(C(C)=O)C[C@@H]3O[C@H]1C[C@H](N)[C@H](O)[C@H](C)O1 : active
CN(C)P(=O)(N(C)C)N(C)C : inactive
Clc1nc2ccccc2nc1Cl : inactive
O=[N+]([O-])c1ccc(-c2nc3sccn3c2[N+](=O)[O-])cc1 : active
O=c1[nH]c(=O)n([C@H]2C[C@H](O)[C@@H](CO)O2)cc1/C=C/Br : inactive

Ask | Name the outcome recorded for Cc1cn2c(N=O)c(-c3ccc([N+](=O)[O-])cc3)nc2s1 in the assay.
Reply | active

Ask | Same question, CCN(CCCl)CCCNc1c2ccc(Cl)cc2nc2ccc(OC)nc12 this time
Reply | active

Ask | Same question, CCN(CCCl)CCCNc1c2ccccc2nc2ccccc12 this time
Reply | active

Ask | Same question, O.[Al+3].[Al+3].[Na+].[Na+].[O-2].[O-2].[O-2].[O-2].[O-2].[O-2].[Si+4] this time
Reply | inactive

Ask | Same question, CCCCOC(=O)CC(CC(=O)OCCCC)(OC(C)=O)C(=O)OCCCC this time
Reply | inactive

Ask | Same question, Nc1ccc2c(c1)C(=O)c1ccccc1C2=O this time
Reply | inactive

Ask | Same question, ClCCNCCCNc1c2ccccc2nc2c1ccc1cccnc12 this time
Reply | active

Ask | Same question, CCOC(=O)C(Cl)C(C)=O (stereo not drawn) this time
Reply | inactive

Ask | Same question, Cc1ccc(N=NN(C)C)cc1 this time
Reply | active

Ask | Same question, Cc1cc(Cl)ccc1OCC(=O)O this time
Reply | inactive

* * *

test system: CCRIS mutagenicity, Ames/micronucleus/aberration tests; assay: CCRIS mutagenicity studies; conditions: Test System: AMES SALMONELLA TYPHIMURIUM; Strain/Indicator: TA100; Metabolic Activation: NONE; Method: STANDARD PLATE
The source made the active and inactive calls. No rule for the calls is given here.
Value Type: mutagenic call

Recorded mutagenic call, per entry:
O=C1c2cccc(S(=O)(=O)O)c2C(=O)c2cccc([N+](=O)[O-])c21 : inactive; negative
CCC(CCC(C)O)COC(=O)CCCCC(=O)O (stereo not drawn) : inactive; negative
CC(=O)OCc1cocc2c(C=O)ccc1-2 : active; positive
Cc1c2cc(CO)ccc2nc2c1c1c(c3ccccc32)O1 : inactive; negative
C=C(C#N)C(=O)OCC : inactive; negative
CCCCOC(=O)CC(CC(=O)OCCCC)(OC(C)=O)C(=O)OCCCC : inactive; negative
O=[N+]([O-])c1ccc2snc(Cl)c2c1 : active; positive
COC(=O)c1cc2c(c3c1ccc1c(OC)cccc13)OCO2 : active; positive

Batch lookup, mutagenic call per entry.
1. O=C(c1ccccc1)C1OC1c1ccc(-c2ccccc2)cc1 (stereo not drawn)
2. N#CC1=C(C#N)SCCS1
3. Cc1ccccc1-c1ccc(N)cc1
4. Cc1cc(=O)n(-c2ccccc2)n1C
5. CC(=O)N(O)c1ccccc1C

Reply |
["inactive; negative", "inactive; negative", "inactive; negative", "inactive; negative", "inactive; negative"]

* * *

tested on: CCRIS mutagenicity, Ames/micronucleus/aberration tests; assay: CCRIS mutagenicity studies; conditions: Test System: Ames Salmonella typhimurium; Strain/Indicator: TA98; Metabolic Activation: None; Method: Preincubation
Activity calls are given as the source filed them. The rule behind the calls is not given here. Where a SMILES comes first, the peptide text is derived from it.
Value Type: mutagenic call

COC(C)(C)C : inactive; negative
CC12C=CC(C1)C1C(=O)OC(=O)C12 (stereo not given) : inactive; negative
C=CC1=C(C)C(=O)N/C1=C\c1[nH]c(Cc2[nH]c(/C=C3\NC(=O)C(C)=C3C=C)c(C)c2CCC(=O)NCCS(=O)(=O)O)c(CCC(=O)NCCS(=O)(=O)O)c1C : inactive; negative
CCCCOCN(C(=O)CCl)c1c(CC)cccc1CC : inactive; negative
Cc1cc(S(=O)(=O)O)c(N)cc1Cl : inactive; negative
c12c3c4c5c1c1c6c7c2c2c8c3c3c9c4c4c%10c5c5c1c1c6c6c%11c7c2c2c7c8c3c3c8c9c4c4c9c%10c5c5c1c1c6c6c%11c2c2c7c3c3c8c4c4c9c5c1c1c6c2c3c41 : inactive; negative
CCN(CC)c1ccc(/C=C/C2=[N+](C)c3ccccc3C2(C)C)cc1 : inactive; negative
COC(=O)[C@H](Cc1ccccc1)NC(=O)[C@@H](N)CC(=O)O (H-Asp-Phe-OMe) : inactive; negative

Batch lookup, mutagenic call per entry.
1. CC(C)=CC1C(C(=O)OC(C#N)c2cccc(Oc3ccccc3)c2)C1(C)C (stereo not given)
2. O=c1c2ccccc2c(=O)c2c1cc(Cl)c1[nH]c3c([nH]c12)c(Cl)cc1c(=O)c2ccccc2c(=O)c13
3. Cc1ccc(O)cc1

Reply |
inactive; negative
active; positive
inactive; negative

* * *

tested on: CCRIS mutagenicity, Ames/micronucleus/aberration tests; experiment: CCRIS mutagenicity studies; details: Test System: AMES SALMONELLA TYPHIMURIUM; Strain/Indicator: TA2638; Metabolic Activation: NONE; Method: STANDARD PLATE
The source made the active and inactive calls. No rule for the calls is given here.
Value Type: mutagenic call

C=O : active; positive
BrCCBr : inactive; negative
COc1cccc2c1C(=O)c1c(O)c3c(c(O)c1C2=O)C[C@@](O)(C(C)=O)C[C@@H]3O[C@H]1C[C@H](N)[C@H](O)[C@H](C)O1 : active; positive
CCOP(=O)(OCC)OCC : inactive; negative

Now consider a different molecule.
Ask | Could you share what mutagenic call was measured for CCn1cc(C(=O)O)c(=O)c2ccc(C)nc21 , tested on CCRIS mutagenicity, Ames/micronucleus/aberration tests?
Reply | inactive; negative

* * *

tested on: CCRIS mutagenicity, Ames/micronucleus/aberration tests; assay: CCRIS mutagenicity studies; conditions: Test System: AMES SALMONELLA TYPHIMURIUM; Strain/Indicator: TA1535; Metabolic Activation: NONE; Method: PREINCUBATION
Calls of active or inactive are those of the source. How the calls were made is not given here.
Give one outcome, nothing more. List: active, inactive

Below, 4 molecules whose answers are already recorded.
CC(C#N)CCC#N (centres undefined) : inactive
Cc1ccc(Cl)cc1 : inactive
Oc1cccc2cccnc12 : inactive
CCCCCCCCCc1ccc(O)cc1 : inactive

Ask | Name the outcome recorded for [B-] in the assay.
Reply | inactive

Ask | Same question, O=Nc1ccc(O)cc1 this time
Reply | inactive

Ask | Same question, C1=C\CC/C=C\CC/1.C1=C\CC/C=C\CC/1.[Ni] this time
Reply | inactive

Ask | Same question, C[n+]1c2ccccc2c(N)c2ccccc21 this time
Reply | active

Ask | Same question, Cc1cc(-c2ccc(N/N=C3\C(=O)c4c(O)cc(S(=O)(=O)O)cc4C=C3S(=O)(=O)O)c(C)c2)ccc1N/N=C1\C(=O)c2c(O)cc(S(=O)(=O)O)cc2C=C1S(=O)(=O)O this time
Reply | inactive

Ask | Same question, Oc1c(Br)c(Br)c(Br)c(Br)c1Br this time
Reply | inactive

Ask | Same question, COc1ccc(-c2noc(CC(=O)O)c2-c2ccc(OC)cc2)cc1 this time
Reply | inactive

Ask | Same question, Nc1ccc(Sc2ccc(N)cc2)cc1 this time
Reply | inactive

Ask | Same question, B#B this time
Reply | inactive

Ask | Same question, C[C@H]1COc2c(N3CCN(C)CC3)c(F)cc3c(=O)c(C(=O)O)cn1c23 this time
Reply | inactive

* * *

system: CCRIS mutagenicity, Ames/micronucleus/aberration tests; experiment: CCRIS mutagenicity studies; settings: Test System: UDS RAT HEPATOCYTES; Strain/Indicator: THY INCORP; Metabolic Activation: NONE; Method: AUTORADIOGRAPHY
Activity calls are given as the source filed them. The rule behind the calls is not given here.
Give one outcome, nothing more. List: label 1 for active, label 0 for inactive

Below, 3 molecules whose answers are already recorded.
O=[N+]([O-])c1ccc(N=Nc2ccc(N(CCO)CCO)cc2)c([N+](=O)[O-])c1 : label 0
O=C1OC(O)C(C(Cl)Cl)=C1Cl (centres undefined) : label 1
Nc1ccccc1 : label 0

Now take the following molecule into account.
Ask | Name the outcome recorded for COCCc1ccc(OCC(O)CN(N=O)C(C)C)cc1 (centres undefined) in the assay.
Reply | label 1
